readoutLabel: melting point

CCON=C1CCN(C(=O)Cc2cccc(-c3noc(C(F)(F)F)n3)c2)CC1	83 to 86 °C
Cl.O=c1c2c(ncn1Cc1ccc(-c3noc(C(F)(F)F)n3)cc1)CNCC2	192 to 195 °C
CCON=CCOc1cc(=O)n(Cc2ccc(-c3noc(C(F)(F)F)n3)cc2)cn1	139 to 142 °C
C[S+]([O-])c1cnn(-c2ccc(-c3noc(C(F)(F)F)n3)cc2)c(=O)c1 (centres unmarked)	145 to 147 °C
N#CCON=C1CN(C(=O)Cc2ccc(-c3noc(C(F)(F)F)n3)cc2)C1	125 to 126 °C

Give its melting point value. Item: O=c1cc(OCC=NOC2CCCCO2)ncn1Cc1ccc(-c2noc(C(F)(F)F)n2)cc1 (centres unmarked) 103 to 106 °C

Consider the compound shown here: O=c1c2ccccc2cnn1Cc1ccc(-c2noc(C(F)(F)F)n2)cc1 What is its recorded melting point? 133 to 136 °C

Recorded melting point of O=c1cc2c(nn1Cc1ccc(-c3noc(C(F)(F)F)n3)cc1)CCC2 , please. 94 to 97 °C

For the compound shown here, N#CCON=CCOc1cc(=O)n(Cc2ccc(-c3noc(C(F)(F)F)n3)cc2)cn1 , give the reported melting point. 131 to 133 °C

# get_value(readout='melting point', item= CON=C1CN(C(=O)c2ccc(-c3noc(C(F)(F)F)n3)cc2)C1 ) 162 to 165 °C

Using the record for O=c1cc(OCC=NOCC(F)F)ncn1Cc1ccc(-c2noc(C(F)(F)F)n2)cc1 , report its melting point. 111 to 115 °C

Quick one: melting point of O=C(Cn1ncccc1=O)c1ccc(-c2noc(C(F)(F)F)n2)cc1 ? 122 to 125 °C

Field request: melting point | item: O=C(Cc1ccc(-c2noc(C(F)(F)F)n2)cc1)N1CCC(=NOCC(F)(F)F)CC1 84 to 86 °C

Request the reported melting point associated with CON=C1CN(C(=O)Cc2ccc(-c3noc(C(F)(F)F)n3)cc2)C1 172 to 176 °C

Give its melting point value. Item: O=C(Cc1ccc(-c2noc(C(F)(F)F)n2)cc1)N1CC(=NOCC(F)(F)F)C1 126 to 129 °C

Look at this compound and give its reported melting point. O=C(Cc1ccc(-c2noc(C(F)(F)F)n2)cc1)N1CC(=NOC2CCCCO2)C1 (centres unmarked) 82 to 83 °C

So what's the measured melting point for this one? COCCON=C1CN(C(=O)Cc2ccc(-c3noc(C(F)(F)F)n3)cc2)C1 114 to 116 °C

====

readoutLabel: melting point

O=c1c2ccccc2cnn1-c1ccc(-c2noc(C(F)(F)F)n2)cc1	141 to 144 °C
O=c1cccnn1CC(O)c1ccc(-c2noc(C(F)(F)F)n2)cc1 (centres unmarked)	119 to 121 °C
CON=C1CCN(C(=O)Cc2ccc(-c3noc(C(F)(F)F)n3)cc2)CC1	73 to 76 °C

Return reported melting point; argument: N#CCCON=C1CCN(C(=O)Cc2ccc(-c3noc(C(F)(F)F)n3)cc2)CC1 71 to 72 °C

Using the record for O=C(Cc1ccc(-c2noc(C(F)(F)F)n2)cc1)N1CC(=NOCC(F)F)C1 , report its melting point. 140 to 141 °C

====

Reported melting point values are given for each entry in this list.

Completed entries (count: 3):
O=C(Cc1ccc(-c2noc(C(F)(F)F)n2)cc1)N1CC(=NOCc2ccccc2)C1	139 to 140 °C
CCON=C1CCN(C(=O)Cc2ccc(-c3noc(C(F)(F)F)n3)cc2)CC1	86 to 88 °C
O=c1cc(OCC=NOCc2ccccc2)ncn1Cc1ccc(-c2noc(C(F)(F)F)n2)cc1	78 to 80 °C

State the recorded melting point for this entry: O=c1ccccn1-c1ccc(-c2noc(C(F)(F)F)n2)cc1 130 to 133 °C

What does the data say about its melting point? Entry: Cc1noc2cnn(Cc3ccc(-c4noc(C(F)(F)F)n4)cc3)c(=O)c12 158 to 160 °C
